Parameter TGI: see the listing below.
# Tested on: T-47D breast
# Procedure details: NCI tumour cell line growth inhibition, 48 h

Here is how some compounds turned out for TGI.
Compound: CN1CCN(C(=O)C(C)(C)c2ccc(C(=O)Nc3cn4cc(-c5ccncc5)ccc4n3)cc2)CC1
Result: > 100 µM

Compound: COc1cc([C@@H]2c3cc4c(cc3[C@@H](c3c(O)cc(O)c5c3O[C@H](c3ccc(O)c(O)c3)[C@@H](O)C5)[C@H]3COC(=O)[C@H]23)OCO4)cc(OC)c1OC
Result: 5.16 µM

Compound: O=C1CCCCCCCCCCC1CN1CCCC1 (centres undefined)
Result: > 100 µM

Compound: O=C(C/C(=N/O)C(=O)NC1=C(Cl)C(=O)c2ccccc2C1=O)CC(c1ccccc1)c1c(O)c2ccccc2oc1=O (centres undefined)
Result: 38.1 µM

Compound: CC(=O)OCC1OC(SC2=N/C(=C\c3ccc(Br)s3)C(=O)N2CN2CCOCC2)C(OC(C)=O)C(OC(C)=O)C1OC(C)=O (centres undefined)
Result: 91.8 µM

Compound: COc1cccc(CCN2CCN(CCCc3ccccc3)CC2)c1
Result: > 100 µM

Fill in: TGI on T-47D breast, entry CC(C)CCCC(C)[C@H]1CCC2[C@@H]3CCC4Cc5nc6c(nc5C[C@]4(C)C3CC[C@@]21C)CC1CC[C@@H]2C(CC[C@@]3(C)C2CC[C@@H]3C(C)CCCC(C)C)[C@@]1(C)C6 (some centres undefined)
> 100 µM

Report the value of TGI obtained on T-47D breast for OC1(c2ccccc2)CCN(Cc2c[nH]c3ccccc23)CC1 .
> 100 µM

Specify the recorded TGI for COc1ccc(C/C(C)=C(/c2ccc(OCCN3CCCCC3)cc2)c2ccc(OC(=O)NCc3ccccc3)cc2)cc1 , system: T-47D breast.
0.746 µM

Retrieve TGI on T-47D breast; query Cc1cc(NC(=O)NC(=O)c2ccccc2NC(=O)C(C)N)ccc1Oc1ncc(Br)cn1 (centres undefined)
29.6 µM

System T-47D breast. Read-out TGI. Item CC1(C)C2CCC13C(=O)C1OC3(C2)C2C(=O)c3ccccc3C(=O)C12 (centres undefined) . Report value.
> 100 µM

Find TGI for Cc1ccc([S@](=O)c2occc2C=O)cc1 on T-47D breast and write it down.
7.11 µM

Retrieve TGI on T-47D breast; query CC(C)CNc1nc2ncnc(N)c2[nH]1
> 100 µM

# lookup: T-47D breast TGI, key = Cc1ccc2c(=O)cc(-c3ccc(Cl)s3)[nH]c2n1
> 100 µM

For T-47D breast, give TGI of the listed compound: N#CC1(C#N)NC(c2cccs2)C(C#N)(C#N)NC1c1cccs1 (centres undefined)
> 100 µM

Give measured TGI for Cc1[nH]c2ccccc2c1CCCO (T-47D breast).
> 100 µM
